Assay: Half life in CD-1 mouse plasma at 15 mg/kg, ip measured up to 24 hrs by LC-MS/MS analysis
Assay type: ADME, organism-based
property measured: half-life (h)
Write the answer as a number in h, unit excluded.

Ask: Request the reported half-life associated with `COc1cccc(OC)c1-c1cc(C(=O)N[C@@H](CCN2CCCCC2)CC(=O)NC2CCC2)nn1C1CCCC1.Cl`
Result: 2.7

---

Assay: AUC in CD-1 mouse brain at 15 mg/kg, ip measured up to 24 hrs by LC-MS/MS analysis
Format: ADME, organism-based
Design: route intraperitoneal, dose 15 mg/kg, time <=24
property measured: AUC at 24 h
Give the number first and the unit second.

Ask: Request the reported AUC at 24 h associated with `COc1cccc(OC)c1-c1cc(C(=O)N[C@@H](CCN2CCCCC2)CC(=O)NC2CCC2)nn1C1CCCC1.Cl`
Result: 1080 ng·h/mL

---

Target: hERG (KCNH2) (Homo sapiens)
Sequence (Q12809 whole entry): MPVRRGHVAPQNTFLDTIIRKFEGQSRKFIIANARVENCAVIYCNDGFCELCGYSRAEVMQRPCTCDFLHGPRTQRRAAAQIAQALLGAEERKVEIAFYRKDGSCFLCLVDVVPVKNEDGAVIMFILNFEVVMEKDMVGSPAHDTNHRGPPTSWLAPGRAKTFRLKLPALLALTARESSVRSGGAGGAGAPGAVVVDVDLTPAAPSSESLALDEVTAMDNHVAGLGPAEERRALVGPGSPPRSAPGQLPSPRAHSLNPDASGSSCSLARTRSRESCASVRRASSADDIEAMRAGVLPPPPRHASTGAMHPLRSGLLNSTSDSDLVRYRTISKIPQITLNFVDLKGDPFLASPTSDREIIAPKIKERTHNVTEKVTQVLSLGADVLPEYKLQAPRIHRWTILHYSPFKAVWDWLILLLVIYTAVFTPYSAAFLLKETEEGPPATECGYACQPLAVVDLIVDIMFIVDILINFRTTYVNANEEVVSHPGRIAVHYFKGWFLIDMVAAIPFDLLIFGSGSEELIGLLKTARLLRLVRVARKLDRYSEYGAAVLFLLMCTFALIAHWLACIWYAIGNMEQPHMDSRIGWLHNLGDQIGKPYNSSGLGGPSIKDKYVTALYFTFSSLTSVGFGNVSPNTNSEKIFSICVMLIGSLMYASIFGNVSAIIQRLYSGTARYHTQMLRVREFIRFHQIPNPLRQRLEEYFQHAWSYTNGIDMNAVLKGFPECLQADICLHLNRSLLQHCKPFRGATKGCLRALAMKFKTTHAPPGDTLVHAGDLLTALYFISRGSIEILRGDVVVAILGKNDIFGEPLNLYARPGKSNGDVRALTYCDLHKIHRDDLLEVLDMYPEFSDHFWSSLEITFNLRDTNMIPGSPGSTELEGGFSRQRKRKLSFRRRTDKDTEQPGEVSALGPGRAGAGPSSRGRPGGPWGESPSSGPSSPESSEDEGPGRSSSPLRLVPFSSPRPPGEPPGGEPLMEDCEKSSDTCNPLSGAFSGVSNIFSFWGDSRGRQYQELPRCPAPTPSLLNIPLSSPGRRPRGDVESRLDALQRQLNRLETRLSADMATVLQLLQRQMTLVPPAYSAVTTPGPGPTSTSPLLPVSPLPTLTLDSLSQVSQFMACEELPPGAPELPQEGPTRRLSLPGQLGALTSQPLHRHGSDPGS
Assay: Displacement of [3H]astemizole from human ERG at 10 uM measured after 60 mins by scintillation counter method relative to control
Conditions: probe [3H]astemizole
property measured: inhibition at 1 h, 10 µM

Ask: So what inhibition at 1 h, 10 µM did `COc1cccc(OC)c1-c1cc(C(=O)N[C@@H](CCN2CCCCC2)CC(=O)NC2CCC2)nn1C1CCCC1.Cl` get with hERG (KCNH2) (Homo sapiens)?
Result: < 50%

---

Experiment: AUC in CD-1 mouse plasma at 15 mg/kg, ip measured up to 24 hrs by LC-MS/MS analysis
Assay type: ADME, organism-based
Design: route intraperitoneal, dose 15 mg/kg, time <=24
property measured: AUC at 24 h (ng·h/mL)
Write the answer as a number in ng·h/mL, unit excluded.

Ask: Request the reported AUC at 24 h associated with `COc1cccc(OC)c1-c1cc(C(=O)N[C@@H](CCN2CCCCC2)CC(=O)NC2CCC2)nn1C1CCCC1.Cl`
Result: 3000

---

In this section, each of the compounds is paired with its reported half-life at 1 µM.
Test: Half life in human pooled liver microsomes at 1 uM incubated up to 120 mins in presence of NADPH by LC-MS analysis
Type: ADME, Microsome
Write the answer as a number in min, unit excluded.

Consider the following illustrative entries.
| compound | property measured | readout value |
| --- | --- | --- |
| COc1cccc(OC)c1-c1cc(C(=O)N[C@@H](CCN2CCCCC2)Cc2nnc[nH]2)nn1C1CCCC1 | half-life at 1 µM | 33 |
| COc1cccc(OC)c1-c1cc(C(=O)N[C@@H](CCN2CCCCC2)CC(=O)N(C)C2CCC2)nn1C1CCCC1 | half-life at 1 µM | 37 |
| COc1cccc(OC)c1-c1cc(C(=O)N[C@@H](CCN2CCCCC2)CC(=O)Nc2nccs2)nn1C1CCCC1 | half-life at 1 µM | 27 |

Note: attention shifts to another entry.
Ask: Request the reported half-life at 1 µM associated with COc1cccc(OC)c1-c1cc(C(=O)N[C@@H](CCN2C(C)CCCC2C)CC(=O)NC2CCC2)nn1C1CCCC1.Cl (some centres undefined)
Result: 52

---

Experiment: Cmax in CD-1 mouse plasma at 15 mg/kg, ip measured up to 24 hrs by LC-MS/MS analysis
Type: ADME, organism-based
Design: route intraperitoneal, dose 15 mg/kg, time <=24
property measured: Cmax (ng/mL)
Write the answer as a number in ng/mL, unit excluded.

Ask: Request the reported Cmax associated with `COc1cccc(OC)c1-c1cc(C(=O)N[C@@H](CCN2CCCCC2)CC(=O)NC2CCC2)nn1C1CCCC1.Cl`
Result: 1580

Data provenance is ChEMBL document CHEMBL4823248.
